Data provenance: BigSolDB 2.1

Experimental Conditions: in acetonitrile, 313.15 K
Quantity Measured: solubility (mole fraction)

Query block: What measured solubility (mole fraction) goes with O=[N+]([O-])c1ccc(Oc2ccc([N+](=O)[O-])cc2)cc1 ?
Result block: 0.0158

* * *

Experimental Conditions: in ethanol, 283.15 K
Quantity Measured: solubility (mole fraction)
Could you respond with only the numeric value?

Query block: Reported solubility (mole fraction) for O=[N+]([O-])c1ccc(Oc2ccc([N+](=O)[O-])cc2)cc1 : what is it?
Result block: 0.00035

* * *

Experimental Conditions: in ethyl acetate, 303.15 K
Quantity Measured: solubility (mole fraction)
Write the value as a bare number.

Query block: Find the recorded solubility (mole fraction) belonging to O=[N+]([O-])c1ccc(Oc2ccc([N+](=O)[O-])cc2)cc1 and report it.
Result block: 0.0228

* * *

Experimental Conditions: in 2-methoxyethanol, 303.15 K
Quantity Measured: solubility (mole fraction)
Kindly provide the number alone.

Query block: Need solubility (mole fraction), item O=[N+]([O-])c1ccc(Oc2ccc([N+](=O)[O-])cc2)cc1
Result block: 0.0116

* * *

Experimental Conditions: in anisole, 308.15 K
Quantity Measured: solubility (mole fraction)

Query block: Value lookup for solubility (mole fraction); key = O=[N+]([O-])c1ccc(Oc2ccc([N+](=O)[O-])cc2)cc1
Result block: 0.0547

* * *

Experimental Conditions: in acetonitrile, 283.15 K
Quantity Measured: solubility (mole fraction)
Could you keep your reply to the number by itself?

Query block: If you can, please state the reported solubility (mole fraction) value of O=[N+]([O-])c1ccc(Oc2ccc([N+](=O)[O-])cc2)cc1 .
Result block: 0.00446

* * *

Experimental Conditions: in acetic acid, 313.15 K
Quantity Measured: solubility (mole fraction)
Please give the numeric answer without any surrounding text.

Query block: // query solubility (mole fraction) value for entry O=[N+]([O-])c1ccc(Oc2ccc([N+](=O)[O-])cc2)cc1
Result block: 0.0072

* * *

Experimental Conditions: in DMF, 308.15 K
Quantity Measured: solubility (mole fraction)
Give a plain numeric answer without units written out.

Query block: // query solubility (mole fraction) value for entry O=[N+]([O-])c1ccc(Oc2ccc([N+](=O)[O-])cc2)cc1
Result block: 0.0933

* * *

Experimental Conditions: in 2-methoxyethanol, 323.15 K
Quantity Measured: solubility (mole fraction)
Keep the answer to the number alone.

Query block: Reported solubility (mole fraction) for O=[N+]([O-])c1ccc(Oc2ccc([N+](=O)[O-])cc2)cc1 : what is it?
Result block: 0.022

* * *

Experimental Conditions: in 1,4-dioxane, 288.15 K
Quantity Measured: solubility (mole fraction)
I'd appreciate a reply containing only the number, no unit.

Query block: Could you share which solubility (mole fraction) value was measured for O=[N+]([O-])c1ccc(Oc2ccc([N+](=O)[O-])cc2)cc1 ?
Result block: 0.0325

* * *

Experimental Conditions: in DMF, 318.15 K
Quantity Measured: solubility (mole fraction)
The response must contain the number and no unit.

Query block: Requested read-out: solubility (mole fraction). Entry: O=[N+]([O-])c1ccc(Oc2ccc([N+](=O)[O-])cc2)cc1
Result block: 0.126

* * *

Experimental Conditions: in DMAc, 283.15 K
Quantity Measured: solubility (mole fraction)
Please reply with the number alone, leaving off any unit.

Query block: Would you mind telling me what solubility (mole fraction) value was observed for O=[N+]([O-])c1ccc(Oc2ccc([N+](=O)[O-])cc2)cc1 ?
Result block: 0.0802
